experimental details: log P by LC-MS, method [b], acid range pH 2.7
Type: physicochemical
measurement parameters: pH 2.7
measurement name: log p

[[record]]
molecule = "O=C1CCC(C(F)(F)F)N1c1cccc(Nc2ncc(Br)c(NC3CCC3)n2)c1 (stereo not shown) [Example 258]"
measurement_name = "log p"
result = "2.3[b]"

[[record]]
molecule = "CC(=O)N(c1cccc(N2CCCC2=O)c1)c1ncc(Cl)c(NCC2CC2)n1 [Example 184]"
measurement_name = "log p"
result = "2.35[b]"

[[record]]
molecule = "CC(C)Nc1nc(Nc2cccc(N3C(=O)OC[C@@H]3C(C)C)c2)ncc1Cl [Example 110]"
measurement_name = "log p"
result = "2.1[b]"

[[record]]
molecule = "CC1CCC(=O)N1c1cccc(Nc2ncc(Br)c(NCC3CC3)n2)c1 (stereo not shown) [Example 133]"
measurement_name = "log p"
result = "1.77[b]"


Ref: patent US20110245242A1
